System: Saccharomyces cerevisiae
Test: protein stability index of tFT-peptide fusion (C-terminal peptide) (PSI (0-1 scale)); higher = more stable (slower turnover);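 also: PSI is a weighted mean of sequencing reads over stability bins, variants kept only with over 10 reads, mCherry proximal and sfGFP distal, peptide attached via GGGS linker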
Settings: genetic background: das1 deletion; temperature: 30 C
assay_endpoint: protein stability index

biopolymer_sequence | result
FLGVFFYFLLCV | 0.254
GLNKGKYIKLYT | 0.635
LGWFVDFVFVVW | 0.27
HSRRRRPTPQSL | 0.651
VRELGVGGWRRQ | 0.619
GRGVRLRVRLLL | 0.606
VLWVYLFLFVIF | 0.248
VLRFVYDLVSAL | 0.531
SWVSVLSELLAC | 0.251
GQFVISVRFLYE | 0.412

###

Test system: Saccharomyces cerevisiae
Experiment: protein stability index of tFT-peptide fusion (C-terminal peptide) (PSI (0-1 scale)); higher = more stable (slower turnover)
Conditions: genetic background: wild type; temperature: 30 C

biopolymer_sequence | target_desc | protein stability index
SLGGCVMCGTTL | Saccharomyces cerevisiae | 0.708
ANQKRTKQQHRR | Saccharomyces cerevisiae | 0.722
LRAPFGWVKRFL | Saccharomyces cerevisiae | 0.663
NNKSNKKKERKE | Saccharomyces cerevisiae | 0.698
VFAFLKPTGKLV | Saccharomyces cerevisiae | 0.597
PYRPYLLPGSLA | Saccharomyces cerevisiae | 0.632
RFCRSGCWFRWG | Saccharomyces cerevisiae | 0.607
PPSPTPPALPAP | Saccharomyces cerevisiae | 0.688
ARAAQPVHFLNL | Saccharomyces cerevisiae | 0.715
LDLVFYMFSPFL | Saccharomyces cerevisiae | 0.618
LVDEGRGLRWSR | Saccharomyces cerevisiae | 0.679
PPPPPRPPLSPP | Saccharomyces cerevisiae | 0.725
CVGLGGPPGGCG | Saccharomyces cerevisiae | 0.603
CFSRKGIRIKRP | Saccharomyces cerevisiae | 0.734
RPNTVHLQALYN | Saccharomyces cerevisiae | 0.68
FLFLYIPFSPPR | Saccharomyces cerevisiae | 0.62
PSLPVPLVPPLS | Saccharomyces cerevisiae | 0.633
SRWFEFSFLSQV | Saccharomyces cerevisiae | 0.707
FLLHHVSRSPSA | Saccharomyces cerevisiae | 0.692

###

Test system: Saccharomyces cerevisiae
Assay: protein stability index of tFT-peptide fusion (C-terminal peptide) (PSI (0-1 scale)); higher = more stable (slower turnover)
Conditions: genetic background: doa10 deletion; temperature: 30 C
Classify as follows. Reported protein stability index greater than or equal to 0.4: yes (1). Reported protein stability index below: no (0).

biopolymer_sequence | category_label
QVVWAVPRICLV | no (0)
VLLLRRPLLVFS | no (0)
HPPPTLVPPHPR | yes (1)
SYCFCCCVLFWG | no (0)
FFLLFCASFLRC | no (0)
LSLFPFLPSPCP | yes (1)
GRVETIEFLFLR | yes (1)
FHSALIAIAAYV | no (0)
VCVFNLTLVGTH | no (0)
FLVVCGLLSWVW | no (0)
GGGGLRVVVWLV | no (0)
VFLFSWYIFSVF | no (0)
LRVGVRSWGGKW | yes (1)
RTRVRKTRIRTC | no (0)
AITHVILLVTPL | no (0)
CVMWFLLSAYYL | no (0)
RLRCRVLQWVWG | no (0)
TGVPNPSVAVMC | yes (1)
